Target: MAGI1_2, Q96QZ7
Sequence (Q96QZ7 456-580): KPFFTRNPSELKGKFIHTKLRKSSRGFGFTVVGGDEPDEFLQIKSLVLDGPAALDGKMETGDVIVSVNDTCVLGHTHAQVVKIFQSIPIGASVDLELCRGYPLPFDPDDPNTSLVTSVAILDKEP
Assay: holdup assay
Set-up: key: below the threshold = too weak to quantify, mostly under pKd 3.1 to 4
Settings: plain residues with an end cap or a label only (N-terminal biotin on a linker: ado-ado)
quantity: pKd

Below, each entry is followed by its recorded pKd result.
LPHGHSTTRV [NLGN4X, Q8N0W4]
4.23
SAAKVLTSMC [GHRHR, Q02643]
below the threshold
PEYLGLDVPV [ERBB2, P04626]
below the threshold
PLSPEQPTKL [TRIM50, Q86XT4]
below the threshold
TSQESEDTYL [TBC1D10A, Q9BXI6]
below the threshold

Task: Name the reported pKd value associated with the binder DDPSTAETVL [ABCA7, Q8IZY2]
Result: below the threshold

Numbers sourced from paper PMC9482650.
